biological target: gastrin (CCK2) receptors (Rattus norvegicus, UniProt P30553); construct: The stomach was excised and flushed with ca. 1 ml of unbuffered physiological saline solution; from tissue; host or cells: isolated whole stomach of immature rats (33-50 g, ca. 21 days old); test: immature rat stomach assay, gastrin (CCK2) antagonist activity; details: isolated immature rat stomach, antagonism of pentagastrin-stimulated acid secretion, 60 min incubation; read-out: Rat stomach pKB (converted)
Sequence (P30553 whole entry): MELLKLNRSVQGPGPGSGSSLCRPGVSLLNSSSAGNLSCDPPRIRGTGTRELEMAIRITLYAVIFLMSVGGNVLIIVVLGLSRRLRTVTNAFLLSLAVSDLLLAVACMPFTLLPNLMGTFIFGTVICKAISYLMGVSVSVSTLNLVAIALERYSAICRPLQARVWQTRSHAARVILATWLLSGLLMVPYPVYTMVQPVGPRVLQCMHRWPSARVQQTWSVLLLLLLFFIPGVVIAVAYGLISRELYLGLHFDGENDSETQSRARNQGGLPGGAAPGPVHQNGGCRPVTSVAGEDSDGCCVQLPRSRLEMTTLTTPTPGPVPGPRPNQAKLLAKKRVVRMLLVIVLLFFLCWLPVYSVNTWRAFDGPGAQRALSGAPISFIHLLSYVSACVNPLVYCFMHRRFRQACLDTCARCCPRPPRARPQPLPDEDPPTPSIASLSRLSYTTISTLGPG
TEST READOUT: Kb (nM)
Numbers only here, please. The scale is nM.

Recorded results for 5 compounds are shown here.
O=C(O)c1cccc(C2CN=C(c3nc(C4CCCCC4)[nH]c3COC34CC5CC(CC(C5)C3)C4)O2)c1 (centres unmarked)	191
O=C(O)c1cncc(-c2nnc(-c3nc(C4CCCCC4)[nH]c3COC34CC5CC(CC(C5)C3)C4)o2)c1	22.9
O=C(O)c1cccc(-c2nnc(-c3nc(C4CCCCC4)[nH]c3COC34CC5CC(CC(C5)C3)C4)s2)c1	3.72
O=C(O)c1cccc(-c2nnc(-c3nc(C45CCC(CC4)CC5)[nH]c3COC34CC5CC(CC(C5)C3)C4)o2)c1	1.91
O=C(O)c1cccc(-c2noc(-c3nc(C4CCCCC4)[nH]c3CCC34CC5CC(CC(C5)C3)C4)n2)c1	6.92

Dear colleague, please send me the reported Kb for "O=C(O)c1cccc(-c2nnc(-c3nc(C4CCCCC4)[nH]c3COC34CC5CC(CC(C5)C3)C4)o2)c1" when you can.
2.45

Dear colleague, please send me the reported Kb for "O=C(O)c1cccc(-c2nc(-c3nc(C4CCCCC4)[nH]c3COC34CC5CC(CC(C5)C3)C4)no2)c1" when you can.
2.4

Dear colleague, please send me the reported Kb for "Cc1ccccc1-c1nc(-c2nc(-c3cccc(C(=O)O)c3)co2)c(CCC23CC4CC(CC(C4)C2)C3)[nH]1" when you can.
18.2

Dear colleague, please send me the reported Kb for "O=C(O)c1cccc(-c2c[nH]c(-c3nc(C4CCCCC4)[nH]c3COC34CC5CC(CC(C5)C3)C4)n2)c1" when you can.
97.7

Dear colleague, please send me the reported Kb for "O=C(O)c1cccc(-c2coc(-c3nc(C4CCCCC4)[nH]c3COC34CC5CC(CC(C5)C3)C4)n2)c1" when you can.
7.94

Dear colleague, please send me the reported Kb for "O=C(O)c1cccc(-c2csc(-c3nc(C4CCCCC4)[nH]c3COC34CC5CC(CC(C5)C3)C4)n2)c1" when you can.
2.69

----------
molecular target: CCK1 receptors (Cavia porcellus, UniProt Q63931); construct: The pancreatata were homogenised in 40 ml ice-cold HEPES buffer using a polytron; from tissue; host or cells: pancreas membranes of male Dunkin Hartley guinea-pigs; assay: CCK1 binding assay, guinea-pig pancreas membranes, [125I]-CCK8(S); details: [125I]-CCK8(S) 200 pM, 150 minutes at 21±3° C; read-out: Guinea-Pig Pancreas CCK1 pKi (converted)
Sequence (Q63931 whole entry): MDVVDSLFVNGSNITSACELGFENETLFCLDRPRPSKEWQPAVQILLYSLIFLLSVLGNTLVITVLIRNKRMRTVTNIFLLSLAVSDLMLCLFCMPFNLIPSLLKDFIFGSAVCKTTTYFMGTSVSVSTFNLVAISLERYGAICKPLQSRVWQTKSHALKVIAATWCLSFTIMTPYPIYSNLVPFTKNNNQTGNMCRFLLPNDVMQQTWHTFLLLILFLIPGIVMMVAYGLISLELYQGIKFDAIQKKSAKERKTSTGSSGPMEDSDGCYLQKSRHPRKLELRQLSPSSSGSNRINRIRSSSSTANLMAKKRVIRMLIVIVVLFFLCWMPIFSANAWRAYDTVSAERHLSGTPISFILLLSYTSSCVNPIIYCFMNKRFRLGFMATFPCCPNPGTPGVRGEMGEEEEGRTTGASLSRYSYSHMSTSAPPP
Reported log10 Ki values for the following compounds.
Would you kindly interpret these values as log10 of Ki expressed in nM?

Recorded results for 3 compounds are shown here.
O=C(O)c1cccc(-c2nnc(-c3nc(C45CCC(CC4)CC5)[nH]c3COC34CC5CC(CC(C5)C3)C4)o2)c1	2.67
O=C(O)c1cncc(-c2nnc(-c3nc(C4CCCCC4)[nH]c3COC34CC5CC(CC(C5)C3)C4)o2)c1	3.51
O=C(O)c1cccc(-c2nnc(-c3nc(C4CCCCC4)[nH]c3COC34CC5CC(CC(C5)C3)C4)o2)c1	2.74

Dear colleague, please send me the reported log10 Ki for "O=C(O)c1cccc(-c2csc(-c3nc(C4CCCCC4)[nH]c3COC34CC5CC(CC(C5)C3)C4)n2)c1" when you can.
3.06

Dear colleague, please send me the reported log10 Ki for "O=C(O)c1cccc(-c2coc(-c3nc(C4CCCCC4)[nH]c3COC34CC5CC(CC(C5)C3)C4)n2)c1" when you can.
2.87

Dear colleague, please send me the reported log10 Ki for "O=C(O)c1cccc(-c2nc(-c3nc(C4CCCCC4)[nH]c3COC34CC5CC(CC(C5)C3)C4)no2)c1" when you can.
2.70

Dear colleague, please send me the reported log10 Ki for "Cc1ccccc1-c1nc(-c2nc(-c3cccc(C(=O)O)c3)co2)c(CCC23CC4CC(CC(C4)C2)C3)[nH]1" when you can.
3.07

Dear colleague, please send me the reported log10 Ki for "O=C(O)c1cccc(-c2nnc(-c3nc(C4CCCCC4)[nH]c3COC34CC5CC(CC(C5)C3)C4)s2)c1" when you can.
2.13

Dear colleague, please send me the reported log10 Ki for "O=C(O)c1cccc(-c2nnc(-c3nc(C4CCCCC4)[nH]c3COC34CC5CC(CC(C5)C3)C4)o2)n1" when you can.
3.33

Dear colleague, please send me the reported log10 Ki for "O=C(O)c1cccc(-c2noc(-c3nc(C4CCCCC4)[nH]c3CCC34CC5CC(CC(C5)C3)C4)n2)c1" when you can.
2.53

Dear colleague, please send me the reported log10 Ki for "O=C(O)c1cccc(-c2c[nH]c(-c3nc(C4CCCCC4)[nH]c3COC34CC5CC(CC(C5)C3)C4)n2)c1" when you can.
2.43

// provenance: patent US6878734B2
